system: MOLT-4 leukemia; test: NCI tumour cell line growth inhibition, 48 h

{"Compound": "O=C1NC(=S)N/C1=C\\c1cccs1", "TGI": "> 100 µM"}
{"Compound": "N/N=C\\c1c2ccccc2c(=O)n2c1oc1ccccc12", "TGI": "64.9 µM"}
{"Compound": "C=C1c2c(C)nn(-c3ccc(C#CCOC4OC(CO)C(O)C(O)C4O)cc3)c2N(C)C23C[C@H]1C1(C)c4c(C)nn(-c5ccc(C#CCOC6OC(CO)C(O)C(O)C6O)cc5)c4N(C)C(C)(C[C@H]12)C3 (some centres undefined)", "TGI": "3.88 µM"}
{"Compound": "O=S(=O)(C1=CC(S(=O)(=O)c2ccccc2)CN(Cc2ccccc2)C1c1cccc2ccccc12)c1ccccc1 (centres undefined)", "TGI": "> 69 µM"}
{"Compound": "COC1OC(CS(=O)(=O)O)C(O)C(O)C1O (centres undefined)", "TGI": "> 100 µM"}
{"Compound": "COC(=O)[C@@H]1C[C@H]2OC(=O)CC[C@]2(C)O[C@H]1[C@H]1O[C@@](C)(O)CCC[C@H]1C", "TGI": "> 50 µM"}
{"Compound": "CCOP(=Nc1ccc(N(C)C)cc1)(OCC)OCC", "TGI": "> 100 µM"}
{"Compound": "CCN1C(=O)c2ccc3c4c(ccc(c24)C1=O)C(=O)N(CCCNCc1ccccc1OC)C3=O", "TGI": "4.37 µM"}
{"Compound": "COC(=O)c1csc([C@@H](OC(=O)[C@H](C)[C@H](CCCC(C)(Cl)Cl)OC(=O)c2csc([C@H](O)CO)n2)C(C)C)n1", "TGI": "32.2 µM"}
{"Compound": "NC(=Nc1ccccc1Cl)c1ccccc1N", "TGI": "> 100 µM"}
{"Compound": "[N-]=[N+]=NCCCn1c2c(c3ccc([N+](=O)[O-])cc3c1=O)C(=O)c1ccccc1-2", "TGI": "> 100 µM"}
{"Compound": "CC(=O)C1C(c2ccccc2)C2(C)OC(=O)C(C#N)C12C (centres undefined)", "TGI": "> 100 µM"}
{"Compound": "Cc1c(-c2ccccc2)cc(O)c2nc3ccccc3n12", "TGI": "> 100 µM"}
{"Compound": "CN(C)C/C=C/C(=O)Nc1ccc(C(=O)N[C@@]2(C)CCC[C@@H](Nc3ncc(Cl)c(-c4c[nH]c5ccccc45)n3)C2)nc1", "TGI": "1.12 µM"}
{"Compound": "O=C(CSc1nnc(-c2ccccn2)s1)N/N=C/c1ccccc1", "TGI": "> 100 µM"}
{"Compound": "C=C(C)[C@@H]1CC[C@]2(COCCCN)CC[C@]3(C)[C@H](CC[C@@H]4[C@@](C)(CCCNCCCN)[C@H](C(=C)C)CC[C@]43C)[C@@H]12", "TGI": "4.47 µM"}
{"Compound": "OC(CNc1ccccn1)c1ccccc1 (centres undefined)", "TGI": "> 100 µM"}
{"Compound": "COc1ccc2c(c1)OC1=C(C(=O)OC1)C2c1cc(OC)c2c(c1)OCCO2 (centres undefined)", "TGI": "> 100 µM"}
{"Compound": "O=C1C=CC(=O)C2C1C1(Cl)C(Cl)=C(Cl)C2(Cl)C1(Cl)Cl (centres undefined)", "TGI": "14.4 µM"}
